- test details: Solubility screening in trehalose matrices pH 2.65 to 7.03
- Format: physicochemical
- condition label: 2 mM HCl and 260 mM trehalose dihydrate, pH 2.65
Ends that are not written are not given here.
endpoint name: Solubility [μmol per ml] (μmol per ml)
Give bare numbers, in μmol per ml.

Example results:
sequence data	Solubility [μmol per ml] [μmol per ml]
ETLLRAVESYLLAHSDAY [Bir09]	0.379
KEMGETLLRAVESYLLAHS [Bir09B]	4.942
SNEIKIVATPEGGSILK [Bir07C]	5.747
PAARMFKAFILEGDKLVPK [Bir02J]	9.069
AKYMVIQGEPGRVIRGK [Bir12B]	4.490

Provide reported Solubility [μmol per ml] for each item, in the same order as listed.
1. FNYETETTSVIPAARK [BIR1I]
2. PGTIKKISFPEGFPFKYV [Bir04]
3. AERERIFKRFDANGEGK [Bir16A]

9.222
8.639
10.652

* * *

- test details: Solubility screening in trehalose matrices pH 2.65 to 7.03
- Assay type: physicochemical
- condition label: 10 mM sodium citrate and 260 mM trehalose dihydrate, pH 5.02
Ends that are not written are not given here.
Mark True for reported Solubility [μmol per ml] of 1 μmol per ml or greater; mark False for anything smaller.

Take a look at these entries with their results.
sequence data	category
AERERIFKRFDANGEGK [Bir16A]	True
KEMGETLLRAVESYLLAHS [Bir09B]	True
PAARMFKAFILEGDKLVPK [Bir02J]	False
ETLLRAVESYLLAHSDAY [Bir09]	False

Confirm if Solubility [μmol per ml] reported for the sequence FNYETETTSVIPAARK [BIR1I] is 1 μmol per ml or above.
True

Confirm if Solubility [μmol per ml] reported for the sequence PGTIKKISFPEGFPFKYV [Bir04] is 1 μmol per ml or above.
True

Confirm if Solubility [μmol per ml] reported for the sequence SNEIKIVATPEGGSILK [Bir07C] is 1 μmol per ml or above.
False

Confirm if Solubility [μmol per ml] reported for the sequence AKYMVIQGEPGRVIRGK [Bir12B] is 1 μmol per ml or above.
True

* * *

- test details: Solubility screening in trehalose matrices pH 2.65 to 7.03
- Assay type: physicochemical
- condition label: aqueous buffer; 10 mM potassium dihydrogen phosphate and 260 mM trehalose dihydrate, pH 7.03; read-out: Solubility [mg per ml]
Ends that are not written are not given here.
Provide the reported solubility of each item.

Example results:
sequence data	solubility
ETLLRAVESYLLAHSDAY [Bir09]	≥ 1.29 mg/mL
AKYMVIQGEPGRVIRGK [Bir12B]	≥ 17.2 mg/mL
PAARMFKAFILEGDKLVPK [Bir02J]	≥ 10.1 mg/mL
AERERIFKRFDANGEGK [Bir16A]	≥ 19.1 mg/mL
KEMGETLLRAVESYLLAHS [Bir09B]	≥ 18.9 mg/mL

Provide reported solubility for each item, in the same order as listed.
1. PGTIKKISFPEGFPFKYV [Bir04]
2. FNYETETTSVIPAARK [BIR1I]

1: ≥ 18.6 mg/mL; 2: ≥ 18 mg/mL

Identify measured solubility corresponding to SNEIKIVATPEGGSILK [Bir07C]
≥ 5.89 mg/mL

* * *

- test details: Solubility screening in trehalose matrices pH 2.65 to 7.03;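 further: test items are peptides, each checked for solubility in every trehalose matrix, the matrices made up in distilled deionised water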
- Assay type: physicochemical
- condition label: 10 mM sodium citrate and 260 mM trehalose dihydrate, pH 3.01
Ends that are not written are not given here.
Provide the reported Solubility [μmol per ml] of each item.
Answers are plain numbers, in μmol per ml.

Example results:
sequence data	unit tag	Solubility [μmol per ml]
AKYMVIQGEPGRVIRGK [Bir12B]	μmol per ml	2.403
KEMGETLLRAVESYLLAHS [Bir09B]	μmol per ml	4.707
ETLLRAVESYLLAHSDAY [Bir09]	μmol per ml	0.153

Provide reported Solubility [μmol per ml] for each item, in the same order as listed.
1. SNEIKIVATPEGGSILK [Bir07C]
2. AERERIFKRFDANGEGK [Bir16A]
3. PGTIKKISFPEGFPFKYV [Bir04]

1. 0.653
2. 3.074
3. 9.516

Provide reported Solubility [μmol per ml] for each item, in the same order as listed.
1. FNYETETTSVIPAARK [BIR1I]
2. PAARMFKAFILEGDKLVPK [Bir02J]

0.779
0.147

Hey, just so you know, these numbers are from patent US9017689B2.
